molecular target: HLA-A*02:19; experiment: IEDB peptide-MHC binding, purified MHC/competitive/fluorescence; filed as Kd, often an IC50 or EC50 that approximates it; bounds were set here for any values at or beyond the usual limits of such assays; details: source organism: Burkholderia vietnamiensis G4
pKd: −log10 of the molar value.
Readout Name: pKd

{"Chain": "WFMTWQPNI", "Tgt": "HLA-A*02:19", "Value": 7.28}

---

molecular target: HLA-A*26:02; test: IEDB peptide-MHC binding, purified MHC/competitive/fluorescence; filed as Kd, often an IC50 or EC50 that approximates it; bounds were set here for any values at or beyond the usual limits of such assays; details: source organism: Mycobacterium tuberculosis variant bovis BCG str. Pasteur 1173P2
pKd: −log10 of the molar value.

{"Chain": "ATADLELAY", "pKd": 6.89}

---

target: HLA-B*40:02; assay: IEDB peptide-MHC binding, purified MHC/competitive/radioactivity; filed as Kd, often an IC50 or EC50 that approximates it; bounds were set here for any values at or beyond the usual limits of such assays; settings: source organism: Mammarenavirus machupoense

{"Chain": "EEPAALLPLS", "Tgt": "HLA-B*40:02", "U": "nM", "Kd": 859}

---

target: HLA-B*18:01; assay: IEDB peptide-MHC binding, purified MHC/direct/fluorescence; filed as Kd, often an IC50 or EC50 that approximates it; bounds were set here for any values at or beyond the usual limits of such assays; conditions: source organism: Camelpox virus M-96
Readout Name: Kd

{"Chain": "GLYRLNFRR", "Readout Name": "Kd", "Value": "≥ 20 µM"}

---

Each item that follows carries a reported Kd.
biological target: HLA-B*51:01; test: IEDB peptide-MHC binding, purified MHC/competitive/fluorescence; filed as Kd, often an IC50 or EC50 that approximates it; bounds were set here for any values at or beyond the usual limits of such assays; conditions: source organism: Zaire ebolavirus

{"Chain": "HPLARTAKV", "Tgt": "HLA-B*51:01", "Kd": "0.201 µM"}
{"Chain": "RDRFKRTSF", "Tgt": "HLA-B*51:01", "Kd": "≥ 20 µM"}
{"Chain": "KEGKLQCRI", "Tgt": "HLA-B*51:01", "Kd": "≥ 20 µM"}

---

target: HLA-A*01:01; assay: IEDB peptide-MHC binding, purified MHC/direct/fluorescence; filed as Kd, often an IC50 or EC50 that approximates it; bounds were set here for any values at or beyond the usual limits of such assays; conditions: source organism: Sudan ebolavirus

{"Chain": "CTSSIQYHR", "Kd": "≥ 20 µM"}

---

target: HLA-B*15:02; assay: IEDB peptide-MHC binding, purified MHC/competitive/fluorescence; filed as Kd, often an IC50 or EC50 that approximates it; bounds were set here for any values at or beyond the usual limits of such assays; settings: source organism: Rickettsia felis URRWXCal2

{"Chain": "FMYALSRAF", "Kd": "2.2 nM"}

---

biological target: HLA-A*69:01; test: IEDB peptide-MHC binding, purified MHC/direct/fluorescence; filed as Kd, often an IC50 or EC50 that approximates it; bounds were set here for any values at or beyond the usual limits of such assays; settings: source organism: Escherichia coli O157:H7

{"Chain": "GEIFGLLGP", "Tgt": "HLA-A*69:01", "Kd": "≥ 20 µM"}
